tested_system: Lysosomal alpha-glucosidase (Homo sapiens) (UniProt P10253)
method: qHTS Assay for Activators of Human alpha-Glucosidase as a Potential Chaperone Treatment of Pompe Disease; also: potency is read from the fitted curve at half-maximal effect; nearly all actives have a fitted effect of over 80% in size
condition: purified enzyme, 4-MU-alpha-glucoside fluorescence, 20 min; series mostly up to 76.9 µM
Hit rate of the full screen: of about 200,000 compounds, about 720 (0.36%) were called active. Another 8% or so got no clear call; they are omitted. The list shows a part of the results.
metric: Potency

// sample `N#Cc1c(C(F)(F)F)cc(-c2cccs2)nc1SCc1cccnc1` , its Potency was 35.5 µM (active)

Lab book: Potency of `CC(C)CCNc1nc(-c2ccco2)c2c(c1C#N)CCCC2` noted as 31.6 µM (active)

Field Potency (entry `CCNc1cc2oc(=O)c(CN3CCOCC3)c(C)c2cc1C` ) reads 31.6 µM (active)

The compound listed as `O=C(NCCc1ccccc1)c1cnc2ccccn2c1=O` has a reported Potency of 25.1 µM (active)

The compound `COC(=O)Cc1c(C)c2ccc(OC(=O)c3ccccc3)cc2oc1=O` showed Potency equal to 35.5 µM (active)

So, `O=c1cc(CN2CCN(S(=O)(=O)c3ccc4c(c3)OCCO4)CC2)c2ccc(O)cc2o1` ? Its Potency was 28.2 µM (active)

Record summary for `CN(C)CCCNS(=O)(=O)c1ccc(N2CCC(c3ccc(Cl)cc3)=N2)cc1` : reported Potency = 35.5 µM (active)

Potency for `COC(=O)Cc1c(C)c2ccc(OC(=O)c3ccco3)cc2oc1=O` is 35.5 µM (active)

// field: Potency; key: `COC(=O)Cc1c(C)c2cc(Cl)c(OC(=O)c3ccco3)cc2oc1=O` ; value = 28.2 µM (active)

Value of Potency reported for the compound `Cc1ccc(-n2c(=O)c(C#N)cc3c(=O)n4cccc(C)c4nc32)cc1` is 10 µM (active)

The compound `O=C(NC(=S)N(Cc1ccccc1)Cc1ccccc1)C1CCCCC1` showed Potency equal to 39.8 µM (active)

Summary for this compound, `CCOc1ccc2nc(N3CCOCC3)nc(C)c2c1` : Potency is 39.8 µM (active)

compound `Cc1cc(N2CCOCC2)nc2cc(O)ccc12` , Potency observed: 28.2 µM (active)

get_value(item= `CN(C)Cc1c(O)c(Cl)cc2c3c(c(=O)oc12)CCCC3` , readout=Potency) returns 35.5 µM (active)

What the record says about `O=c1cc(CN2CCN(S(=O)(=O)/C=C/c3ccccc3)CC2)c2ccc(O)cc2o1` : Potency is 35.5 µM (active)

Lookup result for COCC(C)OC(=O)c1c(N)n(CC(C)C)c2nc3ccccc3nc12 (stereo not drawn) ; measured Potency: 35.5 µM (active)

Looking up `Clc1ccc(/C=C/c2nc3ccccc3[nH]2)c(Cl)c1` , I see its Potency listed as 35.5 µM (active)

Lab note: measured Potency of CC(=O)Oc1ccc2c(C)c(CC(C)O)c(=O)oc2c1 (stereo not drawn) was 39.8 µM (active)

Looking up `CCN(CC)Cc1c(O)c(Cl)cc2c3c(c(=O)oc12)CCCC3` , I found its Potency recorded as 35.5 µM (active)

Reported Potency of `C=CCn1c(N)c(C(=O)OC(C)(C)C)c2nc3ccccc3nc21` : 35.5 µM (active)

Lab note: measured Potency of `N#Cc1c(N)n(CCNC(=O)c2ccccc2)c2nc3ccccc3nc12` was 7.94 µM (active)

Entry `CC(C)C(=O)Nc1c2c(nc3ccccc13)N(C)CC2` ; Potency = 35.5 µM (active)

The compound listed as `O=S(=O)(c1ccc(N2CCC(c3ccc(Cl)cc3)=N2)cc1)N(CCO)CCO` has a reported Potency of 35.5 µM (active)

====

tested_system: Lysosomal alpha-glucosidase (Homo sapiens)
method: qHTS Assay for Activators of Human alpha-Glucosidase as a Potential Chaperone Treatment of Pompe Disease; also: potency is read from the fitted curve at half-maximal effect; nearly all actives have a fitted effect of over 80% in size
condition: purified enzyme, 4-MU-alpha-glucoside fluorescence, 20 min; series mostly up to 76.9 µM
Out of some 200,000 compounds screened, about 720 (0.36%) were called active. Not shown: some 8% with an inconclusive outcome. The list shows a part of the results.
metric: Potency

Kindly note: Lysosomal alpha-glucosidase (Homo sapiens), `O=c1c(-c2nnc(SCc3ccc(Cl)cc3Cl)o2)cccn1Cc1ccccc1` , Potency value reported: 35.5 µM (active)

The reported Potency value, Lysosomal alpha-glucosidase (Homo sapiens), for `Nc1c(C(=O)NCCN2CCOCC2)c2nc3ccccc3nc2n1-c1ccccc1` reads 35.5 µM (active)

Form field, Potency with Lysosomal alpha-glucosidase (Homo sapiens), item CCOC(=O)C1=C(C)NC2=C(C(=O)CCC2)C1c1cn(Cc2ccc(Cl)cc2Cl)nc1-c1ccccc1 (stereo not drawn) : 31.6 µM (active)

Item `COc1ccc(-c2cc(=Nc3c(C)n(C)n(-c4ccccc4)c3=O)c3ccccc3o2)cc1` ; assay system Lysosomal alpha-glucosidase (Homo sapiens); Potency reported as 35.5 µM (active)

Value sought: Potency, system Lysosomal alpha-glucosidase (Homo sapiens), item `Cc1cc(C)n(-c2nc3ccccc3[nH]c2=O)n1` . Result: 39.8 µM (active)

Considering CC1=CN2C(=NC(=O)CC2(C)C(=O)N(CC(=O)NC2CCCC2)c2cc(C)cc(C)c2)C=C1 (stereo not drawn) , its Potency with Lysosomal alpha-glucosidase (Homo sapiens) was recorded as 39.8 µM (active)

Assay Lysosomal alpha-glucosidase (Homo sapiens), sample `COc1ccc2cc3cc(C(=O)NCCN4CCN(Cc5ccccc5)CC4)oc3nc2c1` , Potency read: 28.2 µM (active)

Potency of `CCOC(=O)CCc1c(C)c(C#N)c2[nH]c3ccccc3n2c1=O` , assay on Lysosomal alpha-glucosidase (Homo sapiens), is 31.6 µM (active)

Entry `Cc1ccc(S(=O)(=O)c2c(N)n(CCCO)c3nc4ccccc4nc23)cc1` under Lysosomal alpha-glucosidase (Homo sapiens) had Potency of 35.5 µM (active)

For the compound `Cc1ccc(-n2c(N)c(S(=O)(=O)c3ccccc3)c3nc4ccccc4nc32)cc1` , the measured Potency on Lysosomal alpha-glucosidase (Homo sapiens) was 25.1 µM (active)

Tested system Lysosomal alpha-glucosidase (Homo sapiens); Potency recorded for `CCCOc1ccc(C2C(C(=O)OC)=CN(CCOC)C=C2C(=O)OC)cc1` was 35.5 µM (active)

Record for `Nc1c(C(=O)NCCN2CCOCC2)c2nc3ccccc3nc2n1CCc1ccccc1F` under target or system Lysosomal alpha-glucosidase (Homo sapiens): Potency reported as 39.8 µM (active)

Observed Potency, Lysosomal alpha-glucosidase (Homo sapiens), `Cc1ccc(Cn2cccc(-c3nc4ccccc4s3)c2=O)cc1` : 28.2 µM (active)

Lysosomal alpha-glucosidase (Homo sapiens) assay, compound `CCN(CC)c1cc(C)c2cc(NC(=O)CNC(C)=O)ccc2n1` , recorded Potency = 35.5 µM (active)

The recorded Potency with Lysosomal alpha-glucosidase (Homo sapiens) for `COc1cc(C(=O)Nc2sc3c(c2C(=O)NCc2ccco2)CCCC3)cc(OC)c1OC` was 28.2 µM (active)

Summary line: `Nc1c(S(=O)(=O)c2ccccc2)c2nc3ccccc3nc2n1Cc1ccco1` , Lysosomal alpha-glucosidase (Homo sapiens), reported Potency = 28.2 µM (active)

Log: Lysosomal alpha-glucosidase (Homo sapiens), compound `COc1ccc2cc3cc(C(=O)NCCN4CCc5ccccc5C4)oc3nc2c1` , Potency = 35.5 µM (active)

Observed Potency, Lysosomal alpha-glucosidase (Homo sapiens), `COCCCn1c(CCC(=O)O)ccc1-c1ccc(F)cc1` : 22.4 µM (active)

Record `COc1ccc2cc3cc(C(=O)NCCN4CCN(c5ccccc5F)CC4)oc3nc2c1` ; system Lysosomal alpha-glucosidase (Homo sapiens); Potency = 35.5 µM (active)

Entry `CCc1cc2c(CN3CCN(C)CC3)cc(=O)oc2cc1O` under Lysosomal alpha-glucosidase (Homo sapiens) had Potency of 35.5 µM (active)

Reading of Potency for `Cc1ccc(Cc2c(C)c(C#N)c3[nH]c4ccccc4n3c2=O)cc1` with Lysosomal alpha-glucosidase (Homo sapiens): 35.5 µM (active)

The reported Potency value, Lysosomal alpha-glucosidase (Homo sapiens), for `Cc1c2c(n3c(nc4ccccc43)c1C#N)N(CCN1CCOCC1)CC2` reads 5.62 µM (active)

Given the compound `CCc1cc(=O)oc2c(CN3CCCC3)c(O)c(Cl)cc12` and test system Lysosomal alpha-glucosidase (Homo sapiens), the measured Potency is 39.8 µM (active)

The value of Potency recorded for Cc1ccc(S(=O)(=O)c2c(N)n(CC3CCOC3)c3nc4ccccc4nc23)cc1 (stereo not drawn) when tested on Lysosomal alpha-glucosidase (Homo sapiens) reads 35.5 µM (active)

# lookup: `Cc1c(CCC(=O)O)c(=O)n2c([nH]c3ccccc32)c1C#N` on Lysosomal alpha-glucosidase (Homo sapiens), Potency = 35.5 µM (active)

Entry `Cc1c2c(n3c(nc4ccccc43)c1C#N)N(CCCN(C)C)CC2` : Potency on Lysosomal alpha-glucosidase (Homo sapiens) = 35.5 µM (active)

// compound `O=c1c(-c2nnc(SCc3ccc(Cl)c(Cl)c3)o2)cccn1Cc1ccccc1` , assay Lysosomal alpha-glucosidase (Homo sapiens), Potency value: 35.5 µM (active)

Form field, Potency with Lysosomal alpha-glucosidase (Homo sapiens), item `C=CCn1c(=O)c(C#N)cc2c(=O)n3ccccc3nc21` : 35.5 µM (active)

Hey, Lysosomal alpha-glucosidase (Homo sapiens) data for `COC(=O)C1=CN(CCCN2CCCC2=O)C=C(C(=O)OC)C1c1cccs1` : Potency came out at 39.8 µM (active)

For O=C(O)C1C2C=CC(O2)C1C(=O)NCCCn1ccnc1 (stereo not drawn) on Lysosomal alpha-glucosidase (Homo sapiens), measured Potency was 20 µM (active)

Entry `N#Cc1cc2c(=O)n3ccccc3nc2n(CCCN2CCOCC2)c1=O` , tested on Lysosomal alpha-glucosidase (Homo sapiens), has a reported Potency of 35.5 µM (active)

Measured on Lysosomal alpha-glucosidase (Homo sapiens), `COC(=O)C1=CN(CCCN2CCCC2=O)C=C(C(=O)OC)C1c1ccccc1C(F)(F)F` has a documented Potency of 28.2 µM (active)

Summary: `N=c1oc2cc(O)ccc2cc1C(=O)Nc1nc2ccccc2s1` , Lysosomal alpha-glucosidase (Homo sapiens), Potency = 35.5 µM (active)

Potency of `CCOc1ccc(C2C(C(=O)OC)=CN(CCOC)C=C2C(=O)OC)cc1` , assay on Lysosomal alpha-glucosidase (Homo sapiens), is 35.5 µM (active)

Param item: CC1=CN2C(=NC(=O)CC2(C)C(=O)N(CC(=O)NC2CCCC2)c2ccccc2C)C=C1 (stereo not drawn) ; param system: Lysosomal alpha-glucosidase (Homo sapiens); output Potency: 35.5 µM (active)

# Potency measured on Lysosomal alpha-glucosidase (Homo sapiens) for item `O=Cc1cn(-c2ccccc2)nc1-c1cc2cc(O)ccc2oc1=O` = 35.5 µM (active)

Readout Potency for CCN1CCn2c3c(c4cc(Cl)ccc42)CCCC31 (stereo not drawn) , test system Lysosomal alpha-glucosidase (Homo sapiens), was 31.6 µM (active)

Let me check: `Nc1c(C(=O)NCCN2CCOCC2)c2nc3ccccc3nc2n1-c1cccc(F)c1` , system Lysosomal alpha-glucosidase (Homo sapiens), measured Potency is 35.5 µM (active)

Per the reported Lysosomal alpha-glucosidase (Homo sapiens) data, `O=c1c(-c2nc3ccccc3s2)cccn1Cc1ccc(Cl)cc1` has Potency of 10 µM (active)

Form: item `c1ccc(Cn2c(-c3ccco3)nc3nc4ccccc4nc32)cc1` ; test system Lysosomal alpha-glucosidase (Homo sapiens); Potency: 35.5 µM (active)

Short answer on Lysosomal alpha-glucosidase (Homo sapiens) for `O=c1oc2c(CN3CCN(CCO)CC3)c(O)ccc2cc1-c1ccccn1` , Potency: 31.6 µM (active)

Lab entry: Lysosomal alpha-glucosidase (Homo sapiens) assay, compound O=C(O)CCn1cc(C2CC(c3ccccc3)=NN2c2ccccc2)c(-c2ccccc2)n1 (stereo not drawn) , Potency = 31.6 µM (active)

// returns Potency for `c1ccn2c(c1)nc1c2nc2ccccn21` with Lysosomal alpha-glucosidase (Homo sapiens); value = 31.6 µM (active)
